Target: Serine/threonine-protein kinase Chk1 (Homo sapiens, UniProt O14757)
Sequence (O14757 whole entry): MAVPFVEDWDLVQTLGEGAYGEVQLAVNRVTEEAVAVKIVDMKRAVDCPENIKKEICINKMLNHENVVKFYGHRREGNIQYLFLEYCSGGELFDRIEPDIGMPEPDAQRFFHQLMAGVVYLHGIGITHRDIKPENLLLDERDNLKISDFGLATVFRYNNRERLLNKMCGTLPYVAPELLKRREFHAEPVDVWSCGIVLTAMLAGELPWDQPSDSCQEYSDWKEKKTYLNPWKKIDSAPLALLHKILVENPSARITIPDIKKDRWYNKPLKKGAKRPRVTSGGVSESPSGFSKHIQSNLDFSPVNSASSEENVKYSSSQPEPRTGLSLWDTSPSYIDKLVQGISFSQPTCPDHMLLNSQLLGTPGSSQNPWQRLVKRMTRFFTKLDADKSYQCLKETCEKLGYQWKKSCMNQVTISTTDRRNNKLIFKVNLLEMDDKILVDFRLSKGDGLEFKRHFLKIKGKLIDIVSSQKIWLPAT
pIC50: −log10 of the molar value.
# cutoff 8 applies to pIC50; >= gives label 1, < gives label 0

Solved entries:
INSERT INTO results (smiles_str, class_assignment) VALUES
  ('N#Cc1cncc(-c2cnc(Nc3cc(N4CCNCC4)ccn3)s2)c1', 'label 0'),
  ('CC(=O)N1CCN(c2ccnc(Nc3ncc(-c4cncc(C(=O)NCCN)c4)s3)c2)CC1', 'label 1'),
  ('OCCNc1ccnc(Nc2ncc(-c3cncnc3)s2)c1', 'label 0'),
  ('CS(=O)(=O)N1CCN(c2ccnc(Nc3ncc(-c4cncnc4)s3)c2)CC1', 'label 0'),
  ('c1ccc(-c2cnc(Nc3cc(N4CCNCC4)ccn3)s2)cc1', 'label 0');

Challenge: Check if pIC50 >= 8 (inclusive). Item: NCCNC(=O)c1cncc(-c2cnc(Nc3cc(CN4CCOCC4)ccn3)s2)c1
Response given: label 1

Challenge: Check if pIC50 >= 8 (inclusive). Item: COc1ncccc1-c1cncc(-c2cnc(Nc3cc(N4CCOCC4)ccn3)s2)c1
Response given: label 0

Challenge: Check if pIC50 >= 8 (inclusive). Item: N#Cc1cncc(-c2cnc(Nc3cc(N4CCOCC4)ccn3)s2)c1
Response given: label 0

Challenge: Check if pIC50 >= 8 (inclusive). Item: Cc1ncc(-c2cnc(Nc3cccc(NCCCN)n3)s2)cn1
Response given: label 0

Challenge: Check if pIC50 >= 8 (inclusive). Item: CNCCNC(=O)c1cncc(-c2cnc(Nc3cc(N4CCOCC4)ccn3)s2)c1
Response given: label 1
